Give inhibition at 3 µM for every item shown.
Tested on: parental wild-type Ba/F3 cells
TEST SUMMARY: Ba/F3 (WT) cell proliferation assay (Alamar Blue)
Type: cell-based
TEST PARAMETERS: Mus musculus, BaF3, read-out: BaF3 WT prolif, % inhibition
Counter-ions that a name gives are not always drawn.
Give a bare numeral; the unit % is implied.

Lookup: inhibition at 3 µM / parental wild-type Ba/F3 cells / O=C(NCC(F)(F)F)Nc1cccc(-c2cnc3cc(-c4ccc(C(=O)N5CCOCC5)cn4)ccn23)c1
45

Lookup: inhibition at 3 µM / parental wild-type Ba/F3 cells / Nc1cnc(-c2ccn3c(-c4cccc(NC(=O)NCC(F)(F)F)c4)cnc3c2)nc1Cl
14

Lookup: inhibition at 3 µM / parental wild-type Ba/F3 cells / O=C(NCC(F)(F)F)Nc1cccc(-c2cnc3cc(-c4nccc(C(=O)N5CCOCC5)n4)ccn23)c1
21

Lookup: inhibition at 3 µM / parental wild-type Ba/F3 cells / CNc1nc(-c2ccn3c(-c4cccc(NC(=O)NCC(F)(F)F)c4)cnc3c2)ncc1F
37

Lookup: inhibition at 3 µM / parental wild-type Ba/F3 cells / CC(C)(CO)Nc1ccc(-c2ccn3c(-c4cccc(NC(=O)NCC(F)(F)F)c4)cnc3c2)nn1 [Example 81, hydrochloride]
20

Lookup: inhibition at 3 µM / parental wild-type Ba/F3 cells / NC(=O)c1ccnc(-c2ccn3c(-c4cccc(NC(=O)NCC(F)(F)F)c4)cnc3c2)n1
0

Lookup: inhibition at 3 µM / parental wild-type Ba/F3 cells / Nc1nc(-c2ccn3c(-c4cc(NC(=O)NCC(F)(F)F)ccc4F)cnc3c2)ncc1F
2

Lookup: inhibition at 3 µM / parental wild-type Ba/F3 cells / CC(F)(F)c1cnc(-c2ccn3c(-c4cccc(NC(=O)NCC(F)(F)F)c4)cnc3c2)nc1
36

Lookup: inhibition at 3 µM / parental wild-type Ba/F3 cells / NC(=O)Nc1cccc(-c2cnc3cc(-c4nncs4)ccn23)c1
23.5

Lookup: inhibition at 3 µM / parental wild-type Ba/F3 cells / Nc1cc(-c2ccn3c(-c4cccc(NC(=O)NCC(F)(F)F)c4)cnc3c2)nc(C(F)(F)F)n1
13

Lookup: inhibition at 3 µM / parental wild-type Ba/F3 cells / O=C(NCC(F)(F)F)Nc1cccc(-c2cnc3cc(-c4cnn(C5CN(CCO)C5)c4)ccn23)c1
37

Lookup: inhibition at 3 µM / parental wild-type Ba/F3 cells / O=C(NCC(F)(F)F)Nc1cccc(-c2cnc3cc(-c4ccc(N5CCCC(O)C5)nn4)ccn23)c1 (centres unmarked)
34

Lookup: inhibition at 3 µM / parental wild-type Ba/F3 cells / NC(=O)Nc1cccc(-c2cnc3cc(Cl)ccn23)c1
23

Lookup: inhibition at 3 µM / parental wild-type Ba/F3 cells / O=C(NCC(F)(F)F)Nc1cc(OC2CCCC2)cc(-c2cnc3cc(-c4ncccn4)ccn23)c1
14
